quantity_name: melting point

Example results:
[
  {
    "compound": "Cc1cn2nc(-c3cc(=O)n4cc(N5CCC6C(CCN6CCO)C5)ccc4n3)cc2c(C)n1 (stereo not drawn) [Compound 624]",
    "result_value": "184 to 187 °C"
  },
  {
    "compound": "COc1ccc(-c2ccc3nc(C4=CCN(C)CC4)cc(=O)n3c2)cc1OC [Compound 377]",
    "result_value": "149 to 152 °C"
  }
]

Shifting focus to the compound that follows.
# input Hello, please tell me recorded melting point for this one: Cc1cn2cc(-c3cc(=O)n4cc(N5C[C@@H](C)N[C@@H](C)C5)ccc4n3)cc(F)c2n1 [Compound 210]
# output 255 to 259 °C

====

melting point for assorted molecules

[
  {
    "molecule": "CN1CC=C(c2cn3c(=O)cc(-c4ccc5c(cnn5C)c4)nc3cn2)CC1 [Compound 506]",
    "melting point": "234 to 236 °C"
  }
]

# input Read the entry CCc1nc(C)cn2nc(-c3cc(=O)n4cc(C5CCN(C)CC5)ncc4n3)cc12 [Compound 654] and write its reported melting point.
# output 261 to 263 °C

# input Give the value of melting point reported for the following: Cc1cn2cc(-c3ccc4nc(N5CCNCC5)cc(=O)n4c3)cc(F)c2n1 [Compound 268]
# output 308 °C (dec.)

# input Recall and state the measured melting point for COc1ccc(-c2cc(=O)n3cc(N4CCC(CN(C)C)CC4)ccc3n2)cc1OC [Compound 573] .
# output 182 to 184 °C

# input Provide melting point value for the following molecule: Cc1cn2cc(-c3ccc4nc(C5CCN(C(C)C)CC5)cc(=O)n4c3)ccc2n1 [Compound 461]
# output 215 to 218 °C

# input Report measured melting point; entry is COc1ccc(-c2cc(=O)n3cc(C4CCNCC4)ccc3n2)cc1OC [Cpd 144]
# output 214 to 217 °C

====

Tested on: SMN2 minigene mRNA (SMN2-A minigene) in HEK293H cells
assay_method_text: SMN2 minigene mRNA splicing RT-qPCR assay in cultured cells
Format: cell-based, human
stated_conditions: Homo sapiens, HEK293-H; concentration increasing full length SMN2 mRNA 1.5-fold relative to vehicle-treated cells; HEK293H cells with SMN2-A minigene, 24 hours, 7-point concentration data; read-out: EC1.5x for production of full length SMN2 mRNA
Reported EC (1.5-fold increase) values for the following molecules.

Known results for molecules:
[
  {
    "smiles_record": "COc1ccc(-c2cc(=O)n3cc(C4=CCN(C5COC5)CC4)cc(C)c3n2)cc1OC",
    "EC (1.5-fold increase)": "0.3 to 1 µM"
  },
  {
    "smiles_record": "Cc1cn2nc(-c3cc(=O)n4cc(N5CCN(CCO)CC5)ccc4n3)cc2cn1",
    "EC (1.5-fold increase)": "0.1 to 0.3 µM"
  },
  {
    "smiles_record": "CCc1nc(C)cn2nc(-c3cc(=O)n4cc(C5CCN(C6CCC6)CC5)ccc4n3)cc12",
    "EC (1.5-fold increase)": "< 0.1 µM"
  }
]

# input Provide only the value of recorded EC (1.5-fold increase) for Cc1cn2cc(-c3cc(=O)n4cc(N5CCNCC5)ccc4n3)cc(F)c2n1
# output < 0.1 µM

# input Please list EC (1.5-fold increase) recorded for the molecule CCc1nc(C)cn2nc(-c3cc(=O)n4cc(N5CCN(C6COC6)CC5)ccc4n3)cc12
# output 1 to 3 µM

# input Give the reported EC (1.5-fold increase) for this molecule. Cc1cn2cc(-c3cc(=O)n4cc(N5CCN(C)CC5)ccc4n3)cc(CO)c2n1
# output < 0.1 µM

====

Tested on: SMN2 minigene mRNA (SMN2-A minigene) in HEK293H cells
assay_method_text: SMN2 minigene mRNA splicing RT-qPCR assay in cultured cells
Assay type: cell-based, human
stated_conditions: Homo sapiens, HEK293-H; concentration increasing full length SMN2 mRNA 1.5-fold relative to vehicle-treated cells; HEK293H cells with SMN2-A minigene, 24 hours, 7-point concentration data; read-out: EC1.5x for production of full length SMN2 mRNA
quantity_name: EC (1.5-fold increase)

For orientation, consider the following solved cases.
[
  {
    "compound": "Cc1cn2nc(-c3cc(=O)n4cc(N5CCC6(CCNC6)C5)ccc4n3)cc2c(C)n1 (centres unmarked)",
    "EC (1.5-fold increase)": "< 0.1 µM"
  },
  {
    "compound": "CCc1nc(C)cn2nc(-c3cc(=O)n4cc(C5CCN(CCO)CC5)cc(C)c4n3)cc12",
    "EC (1.5-fold increase)": "< 0.1 µM"
  },
  {
    "compound": "CCc1cc(-c2cc(=O)n3cc(N4CCCN(C)CC4)ccc3n2)cn2cc(C)nc12",
    "EC (1.5-fold increase)": "< 0.1 µM"
  }
]

# input Could you please provide reported EC (1.5-fold increase) for CCN1CCN(c2ccc3nc(-c4cc5c(C)nc(C)cn5n4)cc(=O)n3c2)C[C@H]1C ? Thanks!
# output < 0.1 µM

# input Identify EC (1.5-fold increase) associated with the compound Cc1cn2cc(-c3cc(=O)n4cc(C5CCNCC5)ccc4n3)cc(C)c2n1
# output < 0.1 µM

====

quantity_name: melting point

Some solved cases for reference:
[
  {
    "smiles_record": "O=c1cc(-c2ccc(C(F)(F)F)cc2)nc2ccc(N3CCNCC3)cn12",
    "quantity_name": "melting point",
    "result_value": "285 °C (dec.)"
  },
  {
    "smiles_record": "Cc1cn2nc(-c3cc(=O)n4cc(CCCN(C)C)ccc4n3)cc2c(C)n1",
    "quantity_name": "melting point",
    "result_value": "136 to 138 °C"
  },
  {
    "smiles_record": "CCc1nc(C)cn2nc(-c3cc(=O)n4cc(C5=CC(C)(C)NC(C)(C)C5)ccc4n3)cc12",
    "quantity_name": "melting point",
    "result_value": "255 to 258 °C"
  }
]

# input Specify measured melting point for COc1cc(-c2cc(=O)n3cc(N4CCN[C@@H](C)C4)ccc3n2)ccc1F .
# output 130 to 135 °C

====

Measured melting point, listed per entry.

In the examples that follow, each entry is paired with its recorded melting point.
[
  {
    "compound": "CCCNC1CCN(c2cc(C)c3nc(-c4cc5c(C)nc(C)cn5n4)cc(=O)n3c2)CC1 [Compound 583]",
    "result_value": "231 to 241 °C"
  },
  {
    "compound": "Cc1cn2nc(-c3cc(=O)n4cc(N5CCNCC5)ccc4n3)cc2c(N(C)C)n1 [Cpd 688]",
    "result_value": "245 to 248 °C"
  },
  {
    "compound": "COc1ccc(-c2cc(=O)n3cc(C4=CCNCC4)c(C)cc3n2)cc1OC [Compound 389]",
    "result_value": "175 °C (dec.)"
  },
  {
    "compound": "CCc1nc(C)cn2nc(-c3cc(=O)n4cc(C5CCN(C6CCC6)CC5)cc(C)c4n3)cc12 [Compound 792]",
    "result_value": "231 to 237 °C"
  },
  {
    "compound": "CCc1cc(C2=CCN(C)CC2)cn2c(=O)cc(-c3ccc(OC)c(OC)c3)nc12 [Compound 415]",
    "result_value": "177 to 182 °C"
  },
  {
    "compound": "Cc1cn2nc(-c3cc(=O)n4cc(N5CCC(C)(NCCO)CC5)ccc4n3)cc2c(C)n1 [Compound 709]",
    "result_value": "196 to 198 °C"
  },
  {
    "compound": "CCN1CC=C(c2ccc3nc(-c4ccc5nc(C)oc5c4)cc(=O)n3c2)CC1 [Compound 304]",
    "result_value": "128 to 131 °C"
  },
  {
    "compound": "CCCN1CCC(c2cc(C)c3nc(-c4cc5c(C)nc(C)cn5n4)cc(=O)n3c2)CC1 [Compound 712]",
    "result_value": "216 to 223 °C"
  },
  {
    "compound": "CCN1CCC(c2ccc3nc(-c4cc5c(C)nc(C)cn5n4)cc(=O)n3c2)CC1 [Compound 454]",
    "result_value": "170 to 172 °C"
  },
  {
    "compound": "Cc1nc2ccc(-c3cc(=O)n4cc(N5CCC(N)CC5)ccc4n3)cc2s1 [Compound 381]",
    "result_value": "190 to 194 °C"
  }
]

# input Identify measured melting point associated with Cc1nc2cc(-c3cc(=O)n4cc(N5CCCNCC5)ccc4n3)ccc2s1 [Compound 161]
# output 208 to 212 °C

====

System: SMN2 minigene mRNA (SMN2-A minigene) in HEK293H cells
assay_method_text: SMN2 minigene mRNA splicing RT-qPCR assay in cultured cells
Type: cell-based, human
stated_conditions: Homo sapiens, HEK293-H; concentration increasing full length SMN2 mRNA 1.5-fold relative to vehicle-treated cells; HEK293H cells with SMN2-A minigene, 24 hours, 7-point concentration data; read-out: EC1.5x for production of full length SMN2 mRNA
quantity_name: EC (1.5-fold increase)

[
  {
    "compound": "C[C@H]1CN(c2ccc3nc(-c4cc(F)cc(C#N)c4)cc(=O)n3c2)CCN1",
    "result_value": "0.3 to 1 µM"
  },
  {
    "compound": "Cc1cn2cc(-c3cc(=O)n4cc(N5CCN6CCC[C@@]6(C)C5)ccc4n3)cc(F)c2n1",
    "result_value": "< 0.1 µM"
  }
]

# input Given COc1ccc(-c2cc(=O)n3cc(N4CCCNCC4)cc(C)c3n2)cc1OC , respond with its EC (1.5-fold increase).
# output 0.3 to 1 µM

# input Please supply the value of reported EC (1.5-fold increase) for the item Cc1nc2ccc(-c3cc(=O)n4cc(N5CCN[C@@H](C)C5)ccc4n3)cc2s1
# output < 0.1 µM

# input // Input: O=c1cc(-c2ccccc2F)nc2ccc(N3CCNCC3)cn12 . Output its EC (1.5-fold increase) only.
# output 3 to 30 µM

# input Let me know recorded EC (1.5-fold increase) for CNC1CCN(c2cc(C)c3nc(-c4cc5c(C)nc(C)cn5n4)cc(=O)n3c2)CC1 , thanks.
# output < 0.1 µM

# input For COc1ccc(-c2cc(=O)n3cc(N4C[C@@H](O)[C@H](N(C)C)C4)ccc3n2)cc1F , write its EC (1.5-fold increase).
# output 1 to 3 µM

# input Identify EC (1.5-fold increase) associated with the compound CCCc1nc(C)cn2nc(-c3cc(=O)n4cc(N5CCN[C@H](C)C5)ccc4n3)cc12
# output < 0.1 µM

# input Consider the compound COc1ccc(-c2cc(=O)n3cc(N4C[C@H]5CN(C)C[C@H]5C4)cc(C)c3n2)cc1OC . State its measured EC (1.5-fold increase).
# output 0.1 to 0.3 µM

# input Answer with reported EC (1.5-fold increase) of Cc1cn2nc(-c3cc(=O)n4cc(N5CCN[C@@H](C)C5)cc(C)c4n3)cc2c(C)n1
# output < 0.1 µM

# input Supply measured EC (1.5-fold increase) of Cc1cn2nc(-c3cc(=O)n4cc(N5C[C@@H](C)N(C)[C@@H](C)C5)ccc4n3)cc2c(C)n1 in your reply.
# output < 0.1 µM

Measured values drawn from patent US11753407B2 for this set.
